- System: hMC4-R
- Construct: expressed in transfected cells; host or cells: HEK-293
- runDescription: cAMP functional assay in HEK-293 cells expressing MC4-R (agonist, neutral antagonist/Schild)
- Assay type: cell-based, human
- measurementConditions: MC4-R; Table 1; read-out: EC50
- Experimental: General method for EC50 determination in functional activity assay. […] Cells were incubated with the test compounds in the presence or absence of α-MSH for 1 hour at 37° C. cAMP levels in the cell lysates were measured using an EIA kit (Amersham). Data analysis and EC50 values were determined using nonlinear regression analysis with Prism Graph-Pad software. […] Assay for agonist. […] Data analysis and EC50 values were determined by using nonlinear regression analysis with Prism Graph-Pad software. […]
reportedProperty: pEC50
# pEC50 is unitless: minus log10 of the molar concentration; print number only

Cc1cc(Cl)ccc1C[C@@H](N)C(=O)N1C[C@@H](C)N(CCc2c[nH]c3ccccc23)C[C@@H]1CCCNC(=N)N [Example 10] | 8.15
Cc1ccc(C[C@@H](N)C(=O)N2C[C@@H](C)N(CCc3ccc4ccccc4c3)C[C@@H]2CCCNC(=N)N)c(C)c1 [Example 28] | 6.41
N=C(N)NCCC[C@H]1C(=O)N(CCc2c[nH]c3ccccc23)CCN1C(=O)[C@H](N)Cc1ccc(Cl)cc1Cl [Example 2] | 6.22
C[C@@H]1CN(C(=O)[C@H](N)Cc2ccc(Cl)cc2)[C@@H](CCCNC(=N)N)CN1CCc1ccc2ccccc2c1 [Example 29] | 6.60

Q: I have this molecule here, C[C@@H]1CN(C(=O)[C@H](N)Cc2ccc3ccccc3c2)[C@@H](CCCNC(=N)N)CN1C(=O)CCCc1c[nH]c2ccccc12 [Example 7] , and I need its recorded pEC50.
Result: 5.42

###

- testedSystem: hMC4-R
- Construct: expressed in transfected cells; host or cells: HEK-293
- Format: binding, human
- measurementConditions: read-out: Ki (nM) (AgRP) MC4-R
reportedProperty: Ki (nM)
# value in nM; strip the unit string

Observe how each entry below is paired with its result.
NCCCC[C@H]1C(=O)N(CCc2ccc3ccccc3c2)CCN1C(=O)[C@@H](Cc1ccc(Cl)cc1Cl)NC(=O)c1ccc(Oc2ccccc2)cc1 [Example 22] | 0.9
C[C@@H]1CN(C(=O)[C@H](N)Cc2ccc(Cl)cc2)[C@@H](CCCNC(=N)N)CN1CCc1ccc2ccccc2c1 [Example 29] | 15

# ---- query molecule ----
Q: Could you tell me which Ki is on file for N=C(N)NCCC[C@H]1C(=O)N2C(CC[C@@H]2COc2ccc3ccccc3c2)N1C(=O)[C@@H](Cc1ccc(Cl)cc1Cl)NC(=O)[C@@H]1CC[C@H](c2ccccc2)N1 (stereo partly drawn) [Example 20] ?
Result: 23

###

- testedSystem: hMC4-R
- Construct: expressed in transfected cells; host or cells: HEK-293
- runDescription: Competitive inhibition assay using [I125]-NDP-α-MSH, hMC4-R membranes
- Type: binding, human
- measurementConditions: read-out: Ki (nM) (NDP-α-MSH) MC4-R
Listing: Ki of selected compounds
The answer should read as a number with its unit following.

Solved entries:
Cc1cc(Cl)ccc1C[C@@H](N)C(=O)N1C[C@@H](C)N(C(=O)Cc2ccc3ccccc3c2)C[C@@H]1CCCNC(=N)N [Example 11] | 3 nM
NCCCC[C@H]1C(=O)N(CCc2ccc3ccccc3c2)CCN1C(=O)[C@@H](Cc1ccc(Cl)cc1Cl)NC(=O)/C=C/c1ccccc1 [Example 21] | 6 nM

Q: Query for hMC4-R: what Ki does the record show for C[C@@H]1CN(C(=O)[C@H](N)Cc2ccc3ccccc3c2)[C@@H](CCCNC(=N)N)CN1CCc1c[nH]c2ccccc12 [Example 8] ?
Result: 37 nM

Q: What would you report for CC(C)C[C@@H]1CN(C(=O)[C@H](N)Cc2ccc(Cl)cc2Cl)[C@@H](CCCNC(=N)N)CN1CCc1ccc2ccccc2c1 [Example 4] ?
Result: 5 nM

Q: Next record, please: CC(=O)N[C@H](Cc1ccc2ccccc2c1)C(=O)N1C[C@@H](CC(C)C)N(CCc2ccc3ccccc3c2)C[C@@H]1CCCNC(=N)N [Example 13]
Result: 6 nM

###

Each record here notes measured Ki.
- testedSystem: hMC5-R
- Construct: expressed in transfected cells; host or cells: HEK-293
- runDescription: Competitive inhibition assay using [I125]-NDP-α-MSH, hMC5-R membranes
- Format: binding, human
- measurementConditions: read-out: Ki (nM) (NDP-α-MSH) MC5-R
- Procedure: Competitive inhibition assay using [1125]-NDP-α-MSH. […] The assay mixture was incubated for 90 minutes at room temperature, then filtered and the membranes washed three times with ice cold buffer. The filter was dried and counted in a gamma counter for remaining radioactivity bound to the membranes. 100% specific binding was defined as the difference in radioactivity (cpm) bound to cell membranes in the absence and presence of 1 μM α-MSH. […]
Kindly answer with a numeric value in nM, unit omitted.

C[C@@H]1CN(C(=O)[C@H](N)Cc2ccc3ccccc3c2)[C@@H](CCCNC(=N)N)CN1C(=O)Cc1c[nH]c2ccccc12 [Example 6] | 1530

Q: Need Ki of N=C(N)NCCC[C@H]1C(=O)N(CCc2c[nH]c3ccccc23)CCN1C(=O)[C@H](N)Cc1ccc(Cl)cc1Cl [Example 2] , thanks.
Result: 1580

Q: // next record CC(=O)N[C@H](Cc1ccc2ccccc2c1)C(=O)N1C[C@@H](CC(C)C)N(CCc2ccc3ccccc3c2)C[C@@H]1CCCNC(=N)N [Example 13]
Result: 378

Q: Now try CC(C)C[C@H]1CN(C(=O)[C@H](N)Cc2ccc(Cl)cc2Cl)[C@@H](CCCNC(=N)N)CN1CCc1ccc2ccccc2c1 [Example 3] .
Result: 698
